assay: In vivo MTN distribution in organs after single i.v. dose (Example 15, EX102005); design: species or system mice; details: lung, iv, 0.075 mg MTN per mouse i.v., read-out: Density of MTN in tissue: Lung
property-measured: concentration at 1 h (ng/g)
// return numeric value only (unit: ng/g, not printed)

The compound O=C1c2c(O)ccc(O)c2C(=O)c2c(NCCNCCO)ccc(NCCNCCO)c21 [MTN, mitoxantrone] showed concentration at 1 h equal to 43000

###

experiment: In vivo MTN distribution in organs after single i.v. dose (Example 15, EX102005); set-up: species or system mice; conditions: liver, iv, 0.075 mg MTN per mouse i.v., read-out: Density of MTN in tissue: Liver
property-measured: concentration at 1 h (ng/g)
// return numeric value only (unit: ng/g, not printed)

The molecule O=C1c2c(O)ccc(O)c2C(=O)c2c(NCCNCCO)ccc(NCCNCCO)c21 [MTN, mitoxantrone] showed concentration at 1 h equal to 10000
